- Test name: Pharmacokinetics of JHG components in pulmonary fibrosis (PF) model rats after intragastric administration of JHGs (plasma, Orbitrap Fusion MS)
- Type: in vivo, Sprague Dawley (SD) rats
- Applied conditions: PF model vs control rats
Readout name: Tmax, PF model group compared with the control group

Molecule: O=c1cc(-c2ccc(O)cc2)oc2cc(OC3OC(CO)C(O)C(O)C3O)cc(O)c12 (centres unmarked) [Apigenin-7-glucoside]
Obs value: decreased significantly
--
Molecule: CC1CCC2N(C1)CC1C3CC4C(CC(=O)C5CC(O)CCC54C)C3CCC1C2(C)O (centres unmarked)
Obs value: decreased significantly
--
Molecule: COc1ccc([C@@H]2CC(=O)c3c(O)cc(O[C@@H]4O[C@H](CO[C@@H]5O[C@@H](C)[C@H](O)[C@@H](O)[C@H]5O)[C@@H](O)[C@H](O)[C@H]4O)cc3O2)cc1O
Obs value: decreased significantly
